# Test system: SK-GT-2 (Gastric Carcinoma)
# MEASUREMENT DESCRIPTION: combination Emax (second highest fraction inhibited in the dose matrix, 72 h); higher = more inhibition; extreme values may be limits of the assay
METRIC NAME: combination Emax
# output: bare number, no unit

Illustrative cases are given below, each with its answer.
CN(CCO)CC[C@H](CSc1ccccc1)Nc1ccc(S(=O)(=O)NC(=O)c2ccc(N3CCC([C@@H](O)c4ccccc4-c4ccc(Cl)cc4)CC3)cc2)cc1S(=O)(=O)C(F)(F)F [AZD4320] + Cn1cnc2c(F)c(Nc3ccc(Br)cc3Cl)c(C(=O)NOCCO)cc21 [Selumetinib] (first compound max 1 µM, 7x7, partner max 3 µM)
0.241
NC1(C(=O)N[C@@H](CCO)c2ccc(Cl)cc2)CCN(c2ncnc3[nH]ccc23)CC1 [Capivasertib] + CC(C)n1c(=O)n(C)c2cnc3cc(F)c(-c4ccc(OCCCN5CCCCC5)nc4)cc3c21 [AZD1390] (first compound max 10 µM, 7x7, partner max 0.3 µM)
0.338
Cc1nc(Nc2ncc(C(=O)Nc3c(C)cccc3Cl)s2)cc(N2CCN(CCO)CC2)n1 [Dasatinib] + CC(=O)Nc1cccc(-n2c(=O)n(C3CC3)c(=O)c3c(Nc4ccc(I)cc4F)n(C)c(=O)c(C)c32)c1 [Trametinib] (first compound max 2 µM, 7x7, partner max 1 µM)
0.545

Q: May I ask what combination Emax has been recorded for CCN(CCO)CCCOc1ccc2c(Nc3cc(CC(=O)Nc4cccc(F)c4)[nH]n3)ncnc2c1 [AZD2811] + O=C(c1cc(Cc2n[nH]c(=O)c3ccccc23)ccc1F)N1CCN(C(=O)C2CC2)CC1 [Olaparib] (first compound max 1 µM, 7x7, partner max 10 µM) ?
A: 0.203

###

# System: MOLM-13 (Acute Myeloid Leukemia)
# MEASUREMENT DESCRIPTION: combination Emax (second highest fraction inhibited in the dose matrix, 72 h); higher = more inhibition; extreme values may be limits of the assay
METRIC NAME: combination Emax

Below: 2 compounds and their reported combination Emax.
C[C@@H](c1ccc2nccn2c1)n1nnc2ncc(-c3cnn(C)c3)nc21 [Savolitinib] + CN(CC[C@H](CSC1=CC=CC=C1)NC2=C(C=C(C=C2)S(=O)(=O)NC(=O)C3=CC=C(C=C3)N4CCC(CC4)[C@H](C5=CC=CC=C5C6=CC=C(C=C6)Cl)O)S(=O)(=O)C(F)(F)F)CCO [AZD4320] (first compound max 1 µM, 7x7, partner max 1 µM)
1
Cc1c2c(nn1C)CSCc1cc(n(C)n1)CSc1cc(c3ccccc3c1)OCCCc1c(C(=O)O)n(C)c3c-2c(Cl)ccc13 [AZD5991] + C=CCn1c(=O)c2cnc(Nc3ccc(N4CCN(C)CC4)cc3)nc2n1-c1cccc(C(C)(C)O)n1 [AZD1775] (first compound max 1 µM, partner max 1 µM)
1

Now for the compound whose combination Emax we want.
Q: I'd like to know its combination Emax. The compound in question is Cc1c2c(nn1C)CSCc1cc(n(C)n1)CSc1cc(c3ccccc3c1)OCCCc1c(C(=O)O)n(C)c3c-2c(Cl)ccc13 [AZD5991] + C[C@@H](Nc1cc(F)cc(F)c1)c1cc(C(=O)N(C)C)cc2c(=O)cc(N3CCOCC3)oc12 [AZD8186] (first compound max 1 µM, 7x7, partner max 3 µM)
A: 1

###

# Tested on: M059J (Glioblastoma)
# MEASUREMENT DESCRIPTION: combination Emax (second highest fraction inhibited in the dose matrix, 72 h); higher = more inhibition; extreme values may be limits of the assay
METRIC NAME: combination Emax
Give the figure only, with no unit attached.

Some entries whose results are on file:
C[C@@H]1COCCN1c1cc(C2([S@](C)(=N)=O)CC2)nc(-c2ccnc3[nH]ccc23)n1 [AZD6738] + Nc1ccn([C@@H]2O[C@H](CO)[C@@H](O)C2(F)F)c(=O)n1 [Gemcitabine] (first compound max 10 µM, 7x7, partner max 0.3 µM)
0.823
CN(CCO)CC[C@H](CSc1ccccc1)Nc1ccc(S(=O)(=O)NC(=O)c2ccc(N3CCC([C@@H](O)c4ccccc4-c4ccc(Cl)cc4)CC3)cc2)cc1S(=O)(=O)C(F)(F)F [AZD4320] + CS(=O)(=O)CCNCc1ccc(-c2ccc3ncnc(Nc4ccc(OCc5cccc(F)c5)c(Cl)c4)c3c2)o1 [Lapatinib] (first compound max 1 µM, 7x7, partner max 10 µM)
0.705
CC1(C)CCC(CN2CCN(c3ccc(C(=O)NS(=O)(=O)c4ccc(NCC5CCOCC5)c([N+](=O)[O-])c4)c(Oc4cnc5[nH]ccc5c4)c3)CC2)=C(c2ccc(Cl)cc2)C1 [Venetoclax] + C[C@@H]1COCCN1C2=NC(=NC(=C2)C3(CC3)[S@](=N)(=O)C)C4=C5C=CNC5=NC=C4 [AZD6738] (first compound max 1 µM, 7x7, partner max 10 µM)
0.526

Q: May I ask what combination Emax has been recorded for CN(CCO)CC[C@H](CSc1ccccc1)Nc1ccc(S(=O)(=O)NC(=O)c2ccc(N3CCC([C@@H](O)c4ccccc4-c4ccc(Cl)cc4)CC3)cc2)cc1S(=O)(=O)C(F)(F)F [AZD4320] + Cc1cc2ncnn2cc1Nc1ncc2c(n1)n(C1CCOCC1)c(=O)n2C [AZD7648] (first compound max 1 µM, 7x7, partner max 10 µM) ?
A: 0.386

Q: Entry Cc1c2c(nn1C)CSCc1cc(n(C)n1)CSc1cc(c3ccccc3c1)OCCCc1c(C(=O)O)n(C)c3c-2c(Cl)ccc13 [AZD5991] + CN(C)CCCOc1ccc(-c2ccc3ncc4c(c3c2)n(C2CCOCC2)c(=O)n4C)cn1 [AZD0156] (first compound max 1 µM, 7x7, partner max 1 µM) : reported combination Emax = ?
A: 0.338

Q: May I ask what combination Emax has been recorded for CC(=O)Nc1cccc(-n2c(=O)n(C3CC3)c(=O)c3c(Nc4ccc(I)cc4F)n(C)c(=O)c(C)c32)c1 [Trametinib] + Cc1nc(-c2cn3c(n2)-c2ccc(-c4cnn(C(C)(C)C(N)=O)c4)cc2OCC3)n(C(C)C)n1 [Taselisib] (first compound max 1 µM, 7x7, partner max 10 µM) ?
A: 0.713

###

# Test system: SU-DHL-5 (B-Cell Non-Hodgkin's Lymphoma)
# MEASUREMENT DESCRIPTION: combination Emax (second highest fraction inhibited in the dose matrix, 72 h); higher = more inhibition; extreme values may be limits of the assay
Reported values of combination Emax for individual entries
// no unit, no text: just the number

The cases that follow already have their combination Emax on record.
CN(CCO)CC[C@H](CSc1ccccc1)Nc1ccc(S(=O)(=O)NC(=O)c2ccc(N3CCC([C@@H](O)c4ccccc4-c4ccc(Cl)cc4)CC3)cc2)cc1S(=O)(=O)C(F)(F)F [AZD4320] + CN(C)CCCOc1ccc(-c2ccc3ncc4c(c3c2)n(C2CCOCC2)c(=O)n4C)cn1 [AZD0156] (first compound max 1 µM, 7x7, partner max 1 µM)
0.512
Cn1cnc2c(F)c(Nc3ccc(Br)cc3Cl)c(C(=O)NOCCO)cc21 [Selumetinib] + CC(C)n1c(=O)n(C)c2cnc3cc(F)c(-c4ccc(OCCCN5CCCCC5)nc4)cc3c21 [AZD1390] (first compound max 10 µM, 7x7, partner max 0.3 µM)
0.299
NC1(C(=O)N[C@@H](CCO)c2ccc(Cl)cc2)CCN(c2ncnc3[nH]ccc23)CC1 [Capivasertib] + CCN(CCO)CCCOc1ccc2c(Nc3cc(CC(=O)Nc4cccc(F)c4)[nH]n3)ncnc2c1 [AZD2811] (first compound max 10 µM, 7x7, partner max 1 µM)
1

Q: Param readout = combination Emax; param system = SU-DHL-5 (B-Cell Non-Hodgkin's Lymphoma); param query = CCN(CCO)CCCOc1ccc2c(Nc3cc(CC(=O)Nc4cccc(F)c4)[nH]n3)ncnc2c1 [AZD2811] + C[C@@H]1COCCN1C2=NC(=NC(=C2)C3(CC3)[S@](=N)(=O)C)C4=C5C=CNC5=NC=C4 [AZD6738] (first compound max 1 µM, 7x7, partner max 10 µM) ; response: value
A: 1

###

# Test system: VMRC-RCZ (Kidney Carcinoma)
# MEASUREMENT DESCRIPTION: combination Emax (second highest fraction inhibited in the dose matrix, 72 h); higher = more inhibition; extreme values may be limits of the assay
METRIC NAME: combination Emax

CS(=O)(=O)CCNCc1ccc(-c2ccc3ncnc(Nc4ccc(OCc5cccc(F)c5)c(Cl)c4)c3c2)o1 [Lapatinib] + Cn1cnc2c(F)c(Nc3ccc(Br)cc3Cl)c(C(=O)NOCCO)cc21 [Selumetinib] (first compound max 10 µM, 7x7, partner max 10 µM)
0.257
CC1(C)CCC(CN2CCN(c3ccc(C(=O)NS(=O)(=O)c4ccc(NCC5CCOCC5)c([N+](=O)[O-])c4)c(Oc4cnc5[nH]ccc5c4)c3)CC2)=C(c2ccc(Cl)cc2)C1 [Venetoclax] + C[C@@H]1COCCN1C2=NC(=NC(=C2)C3(CC3)[S@](=N)(=O)C)C4=C5C=CNC5=NC=C4 [AZD6738] (first compound max 1 µM, 7x7, partner max 10 µM)
0.434

Let us examine a further case.
Q: Would you mind telling me what combination Emax value was observed for COc1nnc2ccc(N3CCC(c4ccc(OCCN5CCN(C)C(=O)[C@H]5C)cc4)CC3)nn12 [AZD5153] + Cc1c2c(nn1C)CSCc1cc(n(C)n1)CSc1cc(c3ccccc3c1)OCCCc1c(C(=O)O)n(C)c3c-2c(Cl)ccc13 [AZD5991] (first compound max 1 µM, 7x7, partner max 1 µM) ?
A: 0.323
